SYSTEM: human melanocortin 1 receptor (human, UniProt Q01726 1-317)
Sequence (Q01726 whole entry): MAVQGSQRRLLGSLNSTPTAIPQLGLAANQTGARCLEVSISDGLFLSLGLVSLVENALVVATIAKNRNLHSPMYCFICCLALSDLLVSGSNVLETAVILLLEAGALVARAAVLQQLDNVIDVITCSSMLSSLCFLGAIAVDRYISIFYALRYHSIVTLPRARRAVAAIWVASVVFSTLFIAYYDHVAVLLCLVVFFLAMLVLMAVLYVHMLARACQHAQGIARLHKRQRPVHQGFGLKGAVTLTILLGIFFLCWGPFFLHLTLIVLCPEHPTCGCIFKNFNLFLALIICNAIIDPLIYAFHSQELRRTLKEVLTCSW
TEST_SUMMARY: cell-based or functional assay
Positions of bridges follow the written chain, without caps; N, C: chain ends. Non-standard residues stand in square brackets, D forms with d. Hyp = O=C(O)[C@@H]1C[C@@H](O)CN1; Dab = NCC[C@H](N)C(=O)O; Aib = CC(C)(N)C(=O)O; Sar = CNCC(=O)O
Assignment: determine reported MC1R cAMP EC50 for the given binders.

Exam item: # input binder: cyclo(CA[Hyp][dF]RWCA[Hyp][dF]RW) (bridge 1-7 via methylene bridge (S-CH2-S), also called c[c[Cys-Ala-Hyp-D-Phe-Arg-Trp-Cys]-Ala-Hyp-D-Phe-Arg-Trp]; Note: methylene bridge) [Chem. 23] ; wanted: its MC1R cAMP EC50
Marked response: > 0.01 µM

Exam item: # input binder: cyclo(C[Aib]H[dF][Dab]WC[Aib]H[dF][Dab]W) (disulfide 1-7; SMILES CC1(C)NC(=O)[C@@H]2CSSC[C@H](NC(=O)[C@H](Cc3c[nH]c4ccccc34)NC(=O)[C@H](CCN)NC(=O)[C@@H](Cc3ccccc3)NC(=O)[C@H](Cc3c[nH]cn3)NC1=O)C(=O)NC(C)(C)C(=O)N[C@@H](Cc1c[nH]cn1)C(=O)N[C@H](Cc1ccccc1)C(=O)N[C@@H](CCN)C(=O)N[C@@H](Cc1c[nH]c3ccccc13)C(=O)N2) [Chem. 46] ; wanted: its MC1R cAMP EC50
Marked response: > 0.0055 µM

Exam item: # input binder: cyclo(C[Sar]H[dF]HWCAKKKW) (disulfide 1-7; SMILES C[C@@H]1NC(=O)[C@@H]2CSSC[C@H](NC(=O)[C@H](Cc3c[nH]c4ccccc34)NC(=O)[C@H](CCCCN)NC(=O)[C@H](CCCCN)NC(=O)[C@H](CCCCN)NC1=O)C(=O)N(C)CC(=O)N[C@@H](Cc1c[nH]cn1)C(=O)N[C@H](Cc1ccccc1)C(=O)N[C@@H](Cc1c[nH]cn1)C(=O)N[C@@H](Cc1c[nH]c3ccccc13)C(=O)N2, also called c[c[Cys-Sar-His-D-Phe-His-Trp-Cys]-Ala-Lys-Lys-Lys-Trp]) [Chem. 73] ; wanted: its MC1R cAMP EC50
Marked response: > 0.05 µM
